Experiment: method code SF-AS, from DOI: 10.1897/1552-8618(1992)11[901:aapohp]2.0.co;2
assay.readout: logP

Study these solved cases before continuing.
molecular_string=CCc1ccccc1OC assay_readout=logP endpoint_value=3.18
molecular_string=CC(=O)Nc1ccc(C)c(Cl)c1 assay_readout=logP endpoint_value=2.69

[P] COc1ccccc1F
[Q] COc1c(C)cccc1NC(C)=O
Data request: Lab log: flag the item ( P or Q ) with the smaller logP figure. Write down the label attached to your selection.
Data returned: Q

[A] CC(=O)Nc1cc(C)cc(C)c1
[B] NC(=O)c1c(Cl)cccc1[N+](=O)[O-]
Data request: So which one has the bigger logP here, A or B ? Field: selected label. Fill in the label of the entry you choose.
Data returned: A

[I] CCCCc1ccc(NC(C)=O)cc1
[II] CC(=O)Nc1ccc(C)c(C)c1C
Data request: Which of the two gives a bigger number for logP: I or II ? Please identify the chosen entry by its label.
Data returned: I

[I] CC(=O)Nc1cccc(C)c1C
[II] COc1cccc([N+](=O)[O-])c1C(N)=O
Data request: Lower value of logP belongs to which: I or II ? Give the chosen item's label as your response.
Data returned: II
